Values from a protein production outcome set (Wang et al. 2014)

Assay: label from the status in PepcDB records
observed-property: protein production

monomer_sequence=MAGGPPNTKAEMEMSLAEELNHGRQGENQEHLVIAEMMELGSRSRGASQKKQKLEQKAAGSASAKRVWNMTATRPKKMGSQLPKPRMLRESGHGDAHLQEYAGNFQGIRFHYDRNPGTDAVAQTSLEEFNVLEMEVMRRQLYAVNRRLRALEEQGATWRHRETLIIAVLVSASIANLWLWMNQ reported_result=failed
monomer_sequence=MLKQPIQAQQLIELLKVHYGIDIHTAQFIQGGADTNAFAYQADSESKSYFIKLKYGYHDEINLSIIRLLHDSGIKEIIFPIHTLEAKLFQQLKHFKIIAYPFIHAPNGFTQNLTGKQWKQLGKVLRQIHETSVPISIQQQLRKEIYSPKWREIVRSFYNQIEFDNSDDKLTAAFKSFFNQNSAAIHRLVDTSEKLSKKIQPDLDKYVLCHSDIHAGNVLVGNEESIYIIDWDEPMLAPKERDLMFIGGGVGNVWNKPHEIQYFYEGYGEINVDKTILSYYRHERIVEDIAVYGQDLLSRNQNNQSRLESFKYFKEMFDPNNVVEIAFATEQ reported_result=failed
monomer_sequence=MPGWHAGGKPACRVPLLTKTGRFKRPVFSSSLSATPRFVAALRSTLLYEGAQHMLKLFVRNLPPQTTEAGLKELFTGYGKVFELQLSRDMFTGKARGTASVSMEGHEARKAIEALDGSDYEGKTIYVALDKGPRSGGRGRR reported_result=failed

* * *

Test: label from the status in PepcDB records
observed-property: protein production

monomer_sequence=MKNPAEIDVADQQRLESMAVGGLIGFRTLLYKEVLRFWKVSFQTVAAPVLTAVLYLLIFGHVLEDRVRVYDQISYTAFLVPGLVMMSVLQNAFANSSSSLIQSKITGNLVFILLPPLSHWEMFGAYVVASIIRGLCVGLGVLLVTAWFANLHFAHIGWILVFGLMGAGILGTLGLIAGIWAEKFDQLAAFQNFLIMPATFLSGVFYSIHSLPAFWQAVSHANPFFYMIDGFRYGFFGVSDVPPLQSLAVVVVAFVVLAALALRLLRNGYKLRY reported_result=failed
monomer_sequence=EKITILADAIPELHVEEANDKVMGSIDWEAALKQSAGKEDLAQEMLQMLVDFIPEVNEWIDKALESDISEEELCHYIHKLHGSSSYCGVPRLKQLCNLIETSLRQHQTISDIEPELFELQDEMEKVTKDANLLLSN reported_result="not failed"
monomer_sequence=MKIGIIGAGFVARAIAKLALQNGHQVMLSNSRDPQSLFSLRPMIGCDIGTATQAALFGDIIVIAVPFTAIDKLPEQALQGKSVIDAVNYYTERDGKVAALDTRSTTTSELLAGYLPGAKITKAFNAITMTQLERDGLPAGSAHRRALPLAGDHEQEKTIVAELYDAFGFDVVDAGKLSEGWRFERNMPSYCVRMTKAELTTALALSSRLEHHHHHH reported_result="not failed"
monomer_sequence=MPSGQEGLDKFHNLNKGKTMFMQRLITTLILVPLVLLAIFYAPSWILWGVVLVILLLAGMECFKLIPVDNLTVQACFLIFLLMCFWACGYFYSYWLSVGLLVWLLNGLAILTYPRSQNYWGYPIVVAIASLILLPLFTQSLMQISFLQQGKELLVYLLFLIWASDIGAYLTGKQWGKHKLIPKVSPGKSWEGVTGGVILAMIVATLGYYYFIPYSIYIWFGLALSTVVISIFGDLFISILKRRCQLKDTGNIIPGHGGILDRLDSLIAALPWFYFGLTYIPLGI reported_result=failed
monomer_sequence=MRDHVEIGIGREARRTYSLDDISVVSSRRTRSSKDVDTTWHIDAYKFDLPFMNHPSDALASPEFVIEMGKQGGLGVINAEGLWGRHADLDEAIAKVIAAYEEGDQAAATRTLQELHAAPLDTELLSERIAQVRDSGEIVAVRVSPQNVREIAPIVIKAGADLLVIQGTLISAEHVNTGGEALNLKEFIGSLDVPVIAGGVNDYTTALHMMRTGAVGIIVGGGENTNSLALGMEVSMATAIADVAAARRDYLDETGGRYVHIIADGSIENSGDVVKAIACGADAVVLGSPLARAEEAAGKGYFWPAVAAHPRFPRGVVTESVDLDEAAPSLEQILHGPSTMPWGVENFEGGLKRALAKCGYTDLKSFQKVSLHVN reported_result="not failed"
monomer_sequence=MDGQQLNRLLLEWIGAWDPFGLGKDAYDVEAASVLQAVYETEDARTLAARIQSIYEFAFDEPIPFPHCLKLARRLLELKQAASCPLP reported_result="not failed"
monomer_sequence=MEDHHHLPENLKPFFHRATEAQERLAKLEAALASTKTDIPDAKLVEENKQLQSKLEEANATVKQEQTKVKDLTIENAKHKYRILHLVRALKDADQKLERLSK reported_result=failed
